TARGET OR SYSTEM: human immunoglobulin E (hIgE) (human) (UniProt P01854)
Sequence (P01854 whole entry): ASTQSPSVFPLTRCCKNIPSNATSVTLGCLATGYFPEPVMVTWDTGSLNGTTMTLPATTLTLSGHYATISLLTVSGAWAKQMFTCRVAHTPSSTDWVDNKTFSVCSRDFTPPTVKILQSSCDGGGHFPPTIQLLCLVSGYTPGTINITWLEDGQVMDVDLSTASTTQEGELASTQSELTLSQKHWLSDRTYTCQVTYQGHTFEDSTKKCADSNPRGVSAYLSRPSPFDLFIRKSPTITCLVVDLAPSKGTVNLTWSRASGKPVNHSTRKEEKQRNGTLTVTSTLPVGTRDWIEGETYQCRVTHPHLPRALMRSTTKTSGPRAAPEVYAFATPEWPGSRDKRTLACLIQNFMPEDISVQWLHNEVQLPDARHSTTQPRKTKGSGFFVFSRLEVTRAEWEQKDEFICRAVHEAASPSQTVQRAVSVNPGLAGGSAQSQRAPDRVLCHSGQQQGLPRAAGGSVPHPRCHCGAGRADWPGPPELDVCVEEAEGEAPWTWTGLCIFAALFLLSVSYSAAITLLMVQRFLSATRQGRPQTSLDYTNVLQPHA
EXPERIMENTAL DETAILS: flow cytometry: inhibition of human IgE binding to hFcεRIα+ bone-marrow-derived mast cells, residual IgE staining (MFI); table head on the sheet reads EC50, the text calls the values IC50; no unit in the table, x axis in µg/ml
Listed binders paired with reported IC50
Note: unit µg/mL is implicit; provide only the numeric part.

BINDER	UNIT TAG	IC50
18E2His2-hIgG1-ABDEG (antibody, V domains shown) VH: QLQLVESGGGLVQPGGSLRLSCAASGFTFSSYVMHWVRQAPGKGLEWVSSIYHDGSHTYYADFVKGRFTISRDNAKNTLYLQMNSLKSEDTAVYYCASGTSYSGSYYYTDPFFGSWGQGTQVTVSS VL: NFMLTQPSALSVTLGQTARITCQGDRLGSRYIHWYQQKPPQAPVLVIHDDDRRPSGIPERFSGSSSGGTATLTISGAQAEDDGDYYCQSADSSGNPVFGGGTHLTVL	µg/mL	208
18E2His2-hIgG1-WT (antibody, V domains shown) VH: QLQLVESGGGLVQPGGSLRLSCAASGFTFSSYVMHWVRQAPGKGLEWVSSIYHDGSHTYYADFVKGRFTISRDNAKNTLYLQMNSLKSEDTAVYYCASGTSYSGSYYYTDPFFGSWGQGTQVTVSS VL: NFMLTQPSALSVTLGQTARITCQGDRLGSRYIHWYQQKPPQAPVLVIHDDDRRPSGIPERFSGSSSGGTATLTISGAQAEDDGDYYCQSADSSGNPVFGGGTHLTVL	µg/mL	25.7
13E4-hIgG1-WT (antibody, V domains shown) VH: ELQLVESGGGLVQPGGSLRLSCAASGFTFSSYVMSWVRQAPGKGLEWVSSIYHDGSHTYYADFVKGRFTISRDNAKNTLYLQMNSLKSEDTAVYYCASGTSYSGSYYYTDPFFGSWGQGTQVTVSS VL: HSAVTQPSALSVTLGQTAKITCQGGSLGSNYAYWYQQKPGQAPVLVIYDDDSRPSGIPERFSGSSSGGTATLTISGAQAEDEGDYYCQSADSNGNAVFGGGTHLTVL	µg/mL	1.44

In the following, a different binder is considered.
**Q:** For the binder shown here, 13E4-hIgG1-ABDEG (antibody, V domains shown) VH: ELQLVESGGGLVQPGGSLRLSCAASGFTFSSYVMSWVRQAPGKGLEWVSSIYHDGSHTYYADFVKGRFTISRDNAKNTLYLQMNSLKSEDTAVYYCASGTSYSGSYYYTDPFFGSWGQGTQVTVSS VL: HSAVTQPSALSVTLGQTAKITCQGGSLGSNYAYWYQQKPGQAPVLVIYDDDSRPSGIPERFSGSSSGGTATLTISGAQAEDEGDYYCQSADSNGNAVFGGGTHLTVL , give the reported IC50.
**A:** 1.36
